tested on: HL-60; assay: NCI tumour cell line growth inhibition, 48 h
Active and inactive are the calls of the source. No stated cut-off is given here; in the data, active = GI50 up to about 1.1 µM and inactive = higher.
Could you please report measured GI50 for the items listed next?

Query string: Given the molecule C=CCNC1=C2C[C@@H](C)C[C@@H](OC)[C@H](OC(=O)CN)[C@H](C)/C=C(\C)[C@@H](OC(N)=O)[C@H](OC)/C=C\C=C(/C)C(=O)NC(=CC1=O)C2=O , write its reported GI50.
Result string: 1.69 µM (inactive)

Query string: Given the molecule c1ccc2c3c(ccc2c1)-c1[nH]ncc1CCO3 , write its reported GI50.
Result string: 14.6 µM (inactive)

Query string: Given the molecule N#C/N=C(\NCCc1c[nH]c2ccccc12)NCc1ccccc1 , write its reported GI50.
Result string: 27.5 µM (inactive)

Query string: Given the molecule COc1cc2c(cc1C[N+](C)(C)CSc1ccccc1)-c1ccccc1CC2 , write its reported GI50.
Result string: 0.721 µM (active)

Query string: Given the molecule CC(=O)C1Cn2c(=O)c3cc4ccccc4cc3c(=O)n2C=C1C (configuration not stated) , write its reported GI50.
Result string: > 100 µM (inactive)

Query string: Given the molecule CC(CO)C1C[C@H](O)[C@@]2(C)CC(=O)C=C(CO)[C@@H]2C1 (some centres not stated) , write its reported GI50.
Result string: 92 µM (inactive)

Query string: Given the molecule Cc1cc(O)c2c(c1)OC1(C)CCC3C(C)(C)CCCC34COC2C14 (configuration not stated) , write its reported GI50.
Result string: 16.6 µM (inactive)

Query string: Given the molecule CN(C)CCCOCCn1c2c(c3ccccc31)CCCC2 , write its reported GI50.
Result string: 5.19 µM (inactive)

Query string: Given the molecule O=c1cc(-c2ccccc2)c2cc3c(=O)ccoc3cc2o1 , write its reported GI50.
Result string: > 100 µM (inactive)

Query string: Given the molecule NCCCC(N)C(=O)O (configuration not stated) , write its reported GI50.
Result string: > 100 µM (inactive)

Query string: Given the molecule CC(C(O)c1ccccc1)N(C)/N=N/c1nc2c([nH]1)c(=O)n(C)c(=O)n2C (configuration not stated) , write its reported GI50.
Result string: > 100 µM (inactive)

Query string: Given the molecule CC(C)C(=O)/C=C/c1c(Cl)cccc1Cl , write its reported GI50.
Result string: 5.36 µM (inactive)

###

tested on: DMS-114; experiment: NCI tumour cell line growth inhibition, 48 h
Calls of active or inactive are those of the source. No stated cut-off is given here; in the data, active = GI50 up to about 1.1 µM and inactive = higher.
parameter: GI50

Query string: State recorded GI50 with DMS-114, entry COc1cc(Br)c(CC2=NCCc3cc(OC)c(OC)cc32)cc1OC , no comment.
Result string: 8.89 µM (inactive)

Query string: State recorded GI50 with DMS-114, entry N#C/C(=C(/S)Nc1ccccc1)c1nc2ccccc2[nH]1 , no comment.
Result string: > 10 µM (inactive)

Query string: State recorded GI50 with DMS-114, entry CCCCc1c2c(nc3c1CC/C(=C\c1ccccc1)C3=O)CCCC2 , no comment.
Result string: 7.74 µM (inactive)

Query string: State recorded GI50 with DMS-114, entry O=C1NC(=O)C2C3C=CC(C12)C1C2C(=O)NC(=O)C2C31 (stereo unspecified) , no comment.
Result string: 125 µM (inactive)

Query string: State recorded GI50 with DMS-114, entry Nc1cccc(S(=O)(=O)NCC(=O)O)c1 , no comment.
Result string: > 100 µM (inactive)

Query string: State recorded GI50 with DMS-114, entry O=c1cc(O)cc2n1CCC2 , no comment.
Result string: > 100 µM (inactive)
